Data provenance: paper PMC10208570

Biological target: T1, LptAm^Q62L (E. coli) (E. coli (ATCC 25922))
T1 chain: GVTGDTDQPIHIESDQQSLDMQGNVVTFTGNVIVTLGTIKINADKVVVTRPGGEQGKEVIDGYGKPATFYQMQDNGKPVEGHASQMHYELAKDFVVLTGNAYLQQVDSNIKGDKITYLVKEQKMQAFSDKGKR
Assay: FP
Bridges are numbered along the chain shown (N, C = ends). Where no end group is shown, it is not given here.
# pIC50 per record follows
pIC50 is a log-scale quantity: -log10 of the concentration expressed in molar.

{"binder": "GSKKPVPIIYCNRRTGKCQRM [Thanatin]", "pIC50": 7.30}

Challenge: Specify measured pIC50 for KKPVPIIYCNRRTGKCQRM (disulfide 9-16 (inferred)) [peptide 1] .
Response given: 7.52
